Just for reference, patent US9475816B2 is where these values come from.

# TARGET DESC: UniProt P50579
# TEST: MetAP2 enzyme assay, MetAP2 enzyme complexed with cobalt ions
# TEST PARAMETERS: MetAP2 Co pIC50, 10 μM CoCl2; -log(IC50), IC50 molar
MEASURED ATTRIBUTE: IC50 (nM)

Here's what some known entries look like.
Exercise: Record request: IC50 value, item Cc1nc2c(cc1-n1c3ccc(F)cc3c3[nH]ncc31)ncn2C[C@H](O)CO
Key: 15.8

Exercise: Request: Cc1nc(N2CCO[C@@H](CO)C2)ncc1-n1c2ccc(F)cc2c2[nH]ncc21
Key: 7.94

Exercise: One more compound: Cc1nc(N2CC[C@H](C(N)=O)C2)ncc1-n1c2ccc(F)cc2c2[nH]ncc21
Key: 15.8

Exercise: Ok, now Cc1cc2c(cc1F)c1[nH]ncc1n2-c1cc2[nH]cnc2nc1C
Key: 12.6

(A) Cc1cccc(-n2c3ccc(F)cc3c3[nH]ncc32)n1
(B) CNC(=O)c1cc(C)c(-n2c3ccc(F)cc3c3[nH]ncc32)cn1
Exercise: Pick one: A or B . Which has the bigger IC50 number? API: response body contains the label of the selected item.
Key: A
(A: 100 nM, B: 12.6 nM)

(a) Cc1nc(N2CC(O)C2)ncc1-n1c2ccc(F)cc2c2[nH]ncc21
(b) O=C(C1CC1)n1c2ccc(F)cc2c2[nH]ncc21
(c) N#Cc1[nH]ncc1-n1c2ccc(F)cc2c2[nH]ncc21
Exercise: rank_up(items): orders items by reported IC50 in ascending numerical order. Write the labels, ordered according to the request.
Key: a, c, b
(a: 7.94 nM, c: 31.6 nM, b: 794 nM)

(I) Cc1cc2nn(C)cc2cc1-n1c2ccc(F)cc2c2[nH]ncc21
(II) Cc1c(-n2c3ccc(F)cc3c3[nH]ncc32)cnc2[nH]c(=O)[nH]c12
(III) OCc1nn(C(F)F)cc1-n1c2ccc(F)cc2c2[nH]ncc21
(IV) Fc1ccc2c(c1)c1[nH]ncc1n2-c1cnn2c1CNCC2
Exercise: Order each entry by recorded IC50, climbing from the minimum. Order the labels as requested and list them.
Key: II, I, III, IV

(A) Cc1nc(N2CCC[C@@H]2C(N)=O)ncc1-n1c2ccc(F)cc2c2[nH]ncc21
(B) Cc1cc(C(=O)NC2(CO)CC2)ncc1-n1c2ccc(F)cc2c2[nH]ncc21
(C) Cn1nc(C(N)=O)cc1-n1c2ccc(F)cc2c2[nH]ncc21
Exercise: Falling order of IC50, please. Dear reader, please state the labels in the requested order.
Key: C, B, A

----------
# TARGET DESC: human MetAP2 enzyme (Homo sapiens)
# TEST: MetAP2 enzyme assay, MetAP2 enzyme complexed with cobalt ions
# TEST PARAMETERS: MetAP2 Co pIC50, 10 μM CoCl2; -log(IC50), IC50 molar
pIC50: −log10 of the molar value.
MEASURED ATTRIBUTE: pIC50

Past entries and their recorded results:
Exercise: What pIC50 value was documented for this compound, Cc1nc(N2CCNCC2)ccc1-n1c2ccc(F)cc2c2[nH]ncc21 [Example 64] ?
Key: 7.80

Exercise: Cc1nc2[nH]c(=O)[nH]c2cc1-n1c2ccc(F)cc2c2[nH]ncc21 [Example 87] , same question.
Key: 8.10

Exercise: Check Cc1nc(C(=O)N(C)CCO)ccc1-n1c2ccc(F)cc2c2[nH]ncc21 [Example 120] too.
Key: 7.80

Exercise: Request: Cc1nc(N2CCN(C)CC2)ccc1-n1c2ccc(F)cc2c2[nH]ncc21 [Example 7]
Key: 7.80

(1) Cc1nc(N2CCC(F)CC2)ncc1-n1c2ccc(F)cc2c2[nH]ncc21 [Example 57]
(2) Cc1cc(N(C)CCO)ncc1-n1c2ccc(F)cc2c2[nH]ncc21 [Example 63]
Exercise: Two entries are listed, 1 and 2 . Which one carries the higher pIC50? Kindly give the label for the entry you pick.
Key: 2

----------
# TARGET DESC: human MetAP2 enzyme (Homo sapiens, UniProt P50579)
# Sequence (P50579 whole entry): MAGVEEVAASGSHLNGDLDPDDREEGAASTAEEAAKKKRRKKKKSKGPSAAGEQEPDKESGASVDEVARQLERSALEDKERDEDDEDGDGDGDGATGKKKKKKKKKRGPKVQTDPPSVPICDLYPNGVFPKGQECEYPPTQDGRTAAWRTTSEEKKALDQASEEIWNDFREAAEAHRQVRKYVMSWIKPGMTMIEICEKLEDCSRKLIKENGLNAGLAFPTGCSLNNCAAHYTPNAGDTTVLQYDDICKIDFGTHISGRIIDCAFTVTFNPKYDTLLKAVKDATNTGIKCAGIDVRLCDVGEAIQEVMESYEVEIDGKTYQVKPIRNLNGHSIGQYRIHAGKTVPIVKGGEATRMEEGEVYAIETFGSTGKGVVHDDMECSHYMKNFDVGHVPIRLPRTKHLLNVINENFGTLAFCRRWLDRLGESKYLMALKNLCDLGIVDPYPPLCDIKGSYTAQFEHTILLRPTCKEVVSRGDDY
# TEST: MetAP2 enzyme assay, MetAP2 enzyme complexed with manganese ions
# TEST PARAMETERS: MetAP2 Mn pIC50, 10 μM MnCl2; -log(IC50), IC50 molar
MEASURED ATTRIBUTE: IC50 (nM)

Exercise: Lookup: IC50 / human MetAP2 enzyme (Homo sapiens, UniProt P50579) / Cn1cc(-n2c3ccc(F)cc3c3[nH]ncc32)c(CO)n1
Key: 5.01

Exercise: Next record, please: Cc1ncncc1-n1c2ccc(F)cc2c2[nH]ncc21
Key: 31.6

Exercise: Moving on to Cc1nc(N2CC[C@@H](N(C)C)C2)ncc1-n1c2ccc(F)cc2c2[nH]ncc21
Key: 79.4

Exercise: Similarly, Cc1nc(NC[C@@H](C)O)ncc1-n1c2ccc(F)cc2c2[nH]ncc21 ?
Key: 6.31

(P) CN1CCN(C(=O)c2ccc(Cn3c4ccc(F)cc4c4[nH]ncc43)cc2)CC1
(Q) Cc1nc(N2CCC(F)CC2)ncc1-n1c2ccc(F)cc2c2[nH]ncc21
(R) O=C(NCCO)c1ccc(Cn2c3ccc(F)cc3c3[nH]ncc32)cc1
(S) CCn1cnc2cc(-n3c4ccc(F)cc4c4[nH]ncc43)c(C)nc21
(T) O=C(NCc1ccccc1)n1c2ccc(F)cc2c2[nH]ncc21
Exercise: # desc sort on IC50 across 5 compounds Present the labels in the sequence the task asks for.
Key: T, P, R, Q, S
(T: 158 nM, P: 79.4 nM, R: 39.8 nM, Q: 12.6 nM, S: 6.31 nM)

----------
# TARGET DESC: human MetAP2 enzyme (Homo sapiens, UniProt P50579)
# TEST: MetAP2 enzyme assay, MetAP2 enzyme complexed with cobalt ions
# TEST PARAMETERS: MetAP2 Co pIC50, 10 μM CoCl2; -log(IC50), IC50 molar
pIC50: −log10 of the molar value.
MEASURED ATTRIBUTE: pIC50

Exercise: Report pIC50 for Cc1nc(N2CCC(CO)CC2)ncc1-n1c2ccc(F)cc2c2[nH]ncc21 please.
Key: 7.90

Exercise: Then CNC(=O)[C@@H]1CCCN1c1ncc(-n2c3ccc(F)cc3c3[nH]ncc32)c(C)n1 ?
Key: 8.20

Exercise: Repeat for the following compound: Cc1nc(C(=O)NC2CC2)ccc1-n1c2ccc(F)cc2c2[nH]ncc21
Key: 8.00

Exercise: Note, next up: Cc1cc(C(=O)N(C)C)ncc1-n1c2ccc(F)cc2c2[nH]ncc21
Key: 7.70

Exercise: Same question for Cc1nc(N2CCC[C@@H](O)C2)ncc1-n1c2ccc(F)cc2c2[nH]ncc21 please.
Key: 8.20

Exercise: Try this compound next: Cc1cc2cn[nH]c2cc1-n1c2ccc(F)cc2c2[nH]ncc21
Key: 8.00

(a) Cc1ncccc1-n1c2ccc(F)cc2c2[nH]ncc21
(b) Cc1nc2c(cc1-n1c3ccc(F)cc3c3[nH]ncc31)[nH]c(=O)n2C[C@H](O)CO
(c) CC(c1ccccc1)n1c2ccc(F)cc2c2[nH]ncc21 (stereo not drawn)
Exercise: Reorder the items by pIC50, least to greatest. Reply format: the labels, ordered as requested.
Key: c, a, b
(c: 7.30, a: 7.80, b: 8.10)

----------
# TARGET DESC: human MetAP2 enzyme (Homo sapiens)
# TEST: MetAP2 enzyme assay, MetAP2 enzyme complexed with cobalt ions
# TEST PARAMETERS: MetAP2 Co pIC50, 10 μM CoCl2; -log(IC50), IC50 molar
MEASURED ATTRIBUTE: IC50 (nM)

Exercise: Any idea what its IC50 is? The compound is Cc1cc2[nH]ncc2cc1-n1c2ccc(F)cc2c2[nH]ncc21 [Example 19]
Key: 12.6

Exercise: Try this compound next: Cc1nc(N2CC[C@H](S(C)(=O)=O)C2)ncc1-n1c2ccc(F)cc2c2[nH]ncc21 [Example 137]
Key: 10

Exercise: Also check Cc1cc(C(=O)N2CC[C@@H](O)C2)ncc1-n1c2ccc(F)cc2c2[nH]ncc21 [Example 109]
Key: 25.1

Exercise: Consider next the compound Cc1nc(N2CC[C@H](C(=O)N3CC(O)C3)C2)ncc1-n1c2ccc(F)cc2c2[nH]ncc21 [Example 111] in the same way.
Key: 7.94

Exercise: Field entry: Cc1nc(C(=O)NCCO)ccc1-n1c2ccc(F)cc2c2[nH]ncc21 [Example 96]
Key: 20

Exercise: Param item: Cc1ccc(-n2c3ccc(F)cc3c3[nH]ncc32)c(C)n1 [Example 10]
Key: 12.6

(I) Cc1nc(N2CC[C@@H](C(N)=O)C2)ncc1-n1c2ccc(F)cc2c2[nH]ncc21 [Example 20]
(II) Cc1nc(NC[C@@H](C)O)ncc1-n1c2ccc(F)cc2c2[nH]ncc21 [Example 93]
(III) O=C(NCc1ccccc1)n1c2ccc(F)cc2c2[nH]ncc21 [Example 98]
Exercise: Returns the items ordered by IC50, from maximum to minimum. # answer = labels listed in requested order
Key: III, I, II
(III: 501 nM, I: 12.6 nM, II: 7.94 nM)
